tested_target: T1, FLAG-LGR6 (human LGR6, predicted mature form aa25-967, N-terminal FLAG tag), expressed on HEK293 cells (human, UniProt Q9HBX8 26-967)
T1 construct: Residues 25-967 are counted on NP-001017403
T1 sequence: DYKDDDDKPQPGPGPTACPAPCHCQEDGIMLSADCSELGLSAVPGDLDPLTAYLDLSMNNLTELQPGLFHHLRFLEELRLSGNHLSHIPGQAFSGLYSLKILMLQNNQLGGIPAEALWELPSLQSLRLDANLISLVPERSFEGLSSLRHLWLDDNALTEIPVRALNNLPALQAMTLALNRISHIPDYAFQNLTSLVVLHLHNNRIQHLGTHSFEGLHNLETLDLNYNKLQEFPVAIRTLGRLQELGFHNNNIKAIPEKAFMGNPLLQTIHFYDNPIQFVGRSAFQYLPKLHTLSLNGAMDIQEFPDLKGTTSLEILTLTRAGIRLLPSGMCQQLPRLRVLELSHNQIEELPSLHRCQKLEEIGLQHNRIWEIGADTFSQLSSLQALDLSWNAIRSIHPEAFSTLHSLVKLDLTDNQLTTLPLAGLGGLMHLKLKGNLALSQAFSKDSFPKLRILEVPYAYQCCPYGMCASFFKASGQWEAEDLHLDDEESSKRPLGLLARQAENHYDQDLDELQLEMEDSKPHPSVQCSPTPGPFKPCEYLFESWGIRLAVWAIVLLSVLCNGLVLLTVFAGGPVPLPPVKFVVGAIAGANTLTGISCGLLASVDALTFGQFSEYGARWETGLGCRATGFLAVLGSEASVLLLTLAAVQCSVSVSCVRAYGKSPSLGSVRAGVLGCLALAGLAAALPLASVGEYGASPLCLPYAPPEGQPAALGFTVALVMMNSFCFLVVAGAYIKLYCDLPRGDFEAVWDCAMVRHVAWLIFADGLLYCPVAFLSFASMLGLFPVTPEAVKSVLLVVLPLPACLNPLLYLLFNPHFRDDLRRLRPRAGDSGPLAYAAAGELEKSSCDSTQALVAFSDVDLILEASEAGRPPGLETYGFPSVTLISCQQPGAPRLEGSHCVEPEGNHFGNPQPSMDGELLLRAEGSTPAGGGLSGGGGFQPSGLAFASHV
experimental_details: whole-cell fluorescence competition binding, displacement of mRSPO1-Fc (~5 nM) from HEK293 cells expressing FLAG-LGR6
Procedure: A fluorescence-based whole-cell competition binding assay was developed to determine whether purified, recombinant RSP01-4 could compete with mRSPO1-Fc for binding to LGR4-6. […] The cells were washed thrice with PBS and fluorescence intensity was measured using a Tecan M1000 plate reader with excitation at 630 nm and emission at 670 nm. […] Binding of mRSPO1-Fc was detected with Alexa Fluor® 647-labeled anti-mouse IgG. […]
This section presents binders with their documented IC50 values.
The reply should contain only the number, in nM.

Use these answered entries as a reference point.
# binder, result_value
rows = [
    ("recombinant human RSPO4 (ligand, Bought from R&D Systems; also called R-spondin 4) LNRRKKQVGTGLGGNCTGCIICSEENGCSTCQQRLFLFIRREGIRQYGKCLHDCPPGYFGIRGQEVNRCKKCGATCESCFSQDFCIRCKRQFYLYKGKCLPTCPPGTLAHQNTRECQGECELGPWGGWSPCTHNGKTCGSAWGLESRVREAGRAGHEEAATCQVLSESRKCPIQRPCPGERSPGQKKGRKDRRPRKDRKLDRRLDVRPRQPGLQP", 7.7),
    ("recombinant human RSPO3 (ligand, Bought from R&D Systems; also called R-spondin 3) QNASRGRRQRRMHPNVSQGCQGGCATCSDYNGCLSCKPRLFFALERIGMKQIGVCLSSCPSGYYGTRYPDINKCTKCKADCDTCFNKNFCTKCKSGFYLHLGKCLDNCPEGLEANNHTMECVSIVHCEVSEWNPWSPCTKKGKTCGFKRGTETRVREIIQHPSAKGNLCPPTNETRKCTVQRKKCQKGERGKKGRERKRKKPNKGESKEAIPDSKSLESSKEIPEQRENKQQQKKRKVQDKQKSVSVSTVH", 1.3),
    ("recombinant human RSPO1 (ligand, UniProt Q2MKA7 21-263, looked up, Bought from R&D Systems; also called R-spondin 1) SRGIKGKRQRRISAEGSQACAKGCELCSEVNGCLKCSPKLFILLERNDIRQVGVCLPSCPPGYFDARNPDMNKCIKCKIEHCEACFSHNFCTKCKEGLYLHKGRCYPACPEGSSAANGTMECSSPAQCEMSEWSPWGPCSKKQQLCGFRRGSEERTRRVLHAPVGDHAACSDTKETRRCTVRRVPCPEGQKRRKGGQGRRENANRNLARKESKEAGAGSRRRKGQQQQQQQGTVGPLTSAGPA", 3.3),
]

Next binder, please.
Query :: Consider the binder shown here: recombinant human RSPO2 (ligand, UniProt Q6UXX9 22-243, looked up, Bought from R&D Systems; also called R-spondin 2) QGNRWRRSKRASYVSNPICKGCLSCSKDNGCSRCQQKLFFFLRREGMRQYGECLHSCPSGYYGHRAPDMNRCARCRIENCDSCFSKDFCTKCKVGFYLHRGRCFDECPDGFAPLEETMECVEGCEVGHWSEWGTCSRNNRTCGFKWGLETRTRQIVKKPVKDTILCPTIAESRRCKMTMRHCPGGKRTPKAKEKRNKKKKRKLIERAQEQHSVFLATDRANQ What is its recorded IC50?
Result :: 0.5

Reference for the values: patent US20130143227A1
